Test system: duck salad
Assay: Test B flood test duck salad
Type: in vivo, Heteranthera limosa
Conditions: Rate 500 g/ha, Pre-emergence section of Table B; 0 to 10 scale (0 no effect, 10 complete control)
Would you mind telling me the reported Ducksalad plant response rating of each entry?
Hey, just send me the number, nothing else.

So the reported Ducksalad plant response rating for CC(C)N(C(=O)n1oc(=O)n(CCC2OCCCO2)c1=O)c1ccccc1 [Compound 561] , on duck salad, turned out to be 0

duck salad assay, compound CC(C)N(C(=O)n1oc(=O)n(C[Si](C)(C)C)c1=O)c1ccccc1 [Compound 577] , recorded Ducksalad plant response rating = 0

The compound CCC(C)n1c(=O)on(C(=O)N(c2ccccc2)C(C)C)c1=O (centres unmarked) [Compound 611] , when measured on duck salad, yielded Ducksalad plant response rating of 1

Tested on duck salad: C=C(Cl)Cn1c(=O)on(C(=O)N(c2ccc(F)cc2F)C(C)C)c1=O [Compound 634] . Observed Ducksalad plant response rating: 0

Record CC(C)N(C(=O)n1oc(=O)n(CC2CCC2)c1=O)c1ccccc1 [Compound 580] / duck salad, Ducksalad plant response rating recorded as 0

Sample COC(=O)C(c1ccccc1)n1c(=O)on(C(=O)N(c2ccc(Cl)cc2)C(C)C)c1=O (centres unmarked) [Compound 724] , system: duck salad. Its Ducksalad plant response rating is 0

Tested on duck salad, the item C=C(Cn1c(=O)on(C(=O)N(c2ccccc2)C(C)C)c1=O)c1cccc(Cl)n1 [Compound 605] showed Ducksalad plant response rating equal to 0

Record COCCn1c(=O)on(C(=O)N(c2ccc(F)cc2)C(C)C)c1=O [Compound 627] ; system duck salad; Ducksalad plant response rating = 1

With duck salad as the test system, CC(C)N(C(=O)n1oc(=O)n(CC(=O)N(C)C)c1=O)c1ccccc1 [Compound 588] showed Ducksalad plant response rating of 0

Given the compound C#CC(C)n1c(=O)on(C(=O)N(c2ccc(Cl)cc2)C(C)C)c1=O (racemic) [Compound 658] and test system duck salad, the measured Ducksalad plant response rating is 0

The value of Ducksalad plant response rating recorded for CC[C@H](C)n1c(=O)on(C(=O)N(c2ccc(F)cc2F)C(C)C)c1=O [Compound 666] when tested on duck salad reads 0

====

Kindly state Velvetleaf plant response rating for each of the entries shown.
Test system: velvetleaf
Test: Test B pre/postemergence velvetleaf
Format: in vivo, Abutilon theophrasti
Conditions: Rate 500 g/ha, Postemergence; scale 0 to 10, 0 no effect, 10 complete control
// no unit string in output, number only

Lab book: Velvetleaf plant response rating of C=CCn1c(=O)on(C(=O)N(c2ccc(Cl)cc2)C(C)C)c1=O [Compound 105] noted as 4

Velvetleaf plant response rating for COc1cccc(C)c1-n1c(=O)on(C(=O)N(c2ccc(F)cc2F)C(C)C)c1=O [Compound 74] is 4

So for CC(C)N(C(=O)n1oc(=O)n(C2CCCCC2)c1=O)c1ccc(F)cc1F [Compound 115] , the logged Velvetleaf plant response rating turned out to be 0

According to the records, this compound Cc1cccc(Cl)c1-n1c(=O)on(C(=O)N(c2ccc(Cl)cc2)C(C)C)c1=O [Compound 54] displays Velvetleaf plant response rating of 0

Sure, the documented Velvetleaf plant response rating for Cc1nn(C)c(Cl)c1-n1c(=O)on(C(=O)N(c2ccc(F)cc2F)C(C)C)c1=O [Compound 96] is 0

Looking up COc1cc(C)cc(C)c1-n1c(=O)on(C(=O)N(c2ccc(F)cc2F)C(C)C)c1=O [Compound 223] , I see its Velvetleaf plant response rating listed as 3

# compound CC(C)N(C(=O)n1oc(=O)n(C(C)(C)C)c1=O)c1ccc(Cl)cc1 [Compound 118] ; its Velvetleaf plant response rating = 0
